meta.source: paper PMC6769917

Biological target: PPL4 (Pteria penguin, UniProt B6F0T8+B6F0T9)
Construct: gene PPL4-a; native, purified from mantle secretory fluid; mature 148 residues per subunit, 16 kDa; disulfide-linked heterodimer 32 kDa (head-to-head, N-terminal bond); N-termini […]; (alpha), […]; (beta)
Sequence (B6F0T8 entry or part of it): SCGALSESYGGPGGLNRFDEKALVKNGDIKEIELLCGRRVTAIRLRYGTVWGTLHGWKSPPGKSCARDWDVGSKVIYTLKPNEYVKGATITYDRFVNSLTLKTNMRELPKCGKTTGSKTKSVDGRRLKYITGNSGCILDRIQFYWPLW
Sequence (B6F0T9 entry or part of it): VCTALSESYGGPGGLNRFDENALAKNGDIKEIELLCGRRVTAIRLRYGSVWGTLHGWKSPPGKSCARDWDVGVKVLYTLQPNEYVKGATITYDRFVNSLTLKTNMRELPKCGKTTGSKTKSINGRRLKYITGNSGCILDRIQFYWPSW
Test: hemagglutination inhibition, rabbit erythrocytes, purified lectin
Assay type: cell-based
Conditions: 0.15 M NaCl; hemagglutination titer 2^−3; 2% rabbit erythrocytes
List of PPL4 values.
Give the quantity in mM, number only.

Field: example entries. Status: answers known.
| molecule | unit.of.measurement | PPL4 |
| --- | --- | --- |
| CC(=O)N[C@H]1C(O)O[C@H](CO)[C@@H](O)[C@@H]1O (stereo partly drawn) [N-Acetyl-D-glucosamine] | mM | 6.25 |
| OC[C@H]1O[C@H](O[C@H]2C(O)O[C@H](CO)[C@@H](O)[C@@H]2O)[C@H](O)[C@@H](O)[C@@H]1O (stereo partly shown) [Kojibiose] | mM | 100 |

Could you now consider this next molecule?
Query: Suppose we examine the molecule OC[C@H]1O[C@H](O[C@H]2O[C@H](CO)[C@@H](O)[C@H](O)[C@H]2O)[C@H](O)[C@@H](O)[C@@H]1O [Trehalose] ; what PPL4 value has been reported?
Reply: 100
